tested target: Epidermal growth factor receptor [T790M,L858R] (Homo sapiens, UniProt P00533, L858R/T790M)
Sequence (P00533 25-1210 T790M/L858R limits assumed): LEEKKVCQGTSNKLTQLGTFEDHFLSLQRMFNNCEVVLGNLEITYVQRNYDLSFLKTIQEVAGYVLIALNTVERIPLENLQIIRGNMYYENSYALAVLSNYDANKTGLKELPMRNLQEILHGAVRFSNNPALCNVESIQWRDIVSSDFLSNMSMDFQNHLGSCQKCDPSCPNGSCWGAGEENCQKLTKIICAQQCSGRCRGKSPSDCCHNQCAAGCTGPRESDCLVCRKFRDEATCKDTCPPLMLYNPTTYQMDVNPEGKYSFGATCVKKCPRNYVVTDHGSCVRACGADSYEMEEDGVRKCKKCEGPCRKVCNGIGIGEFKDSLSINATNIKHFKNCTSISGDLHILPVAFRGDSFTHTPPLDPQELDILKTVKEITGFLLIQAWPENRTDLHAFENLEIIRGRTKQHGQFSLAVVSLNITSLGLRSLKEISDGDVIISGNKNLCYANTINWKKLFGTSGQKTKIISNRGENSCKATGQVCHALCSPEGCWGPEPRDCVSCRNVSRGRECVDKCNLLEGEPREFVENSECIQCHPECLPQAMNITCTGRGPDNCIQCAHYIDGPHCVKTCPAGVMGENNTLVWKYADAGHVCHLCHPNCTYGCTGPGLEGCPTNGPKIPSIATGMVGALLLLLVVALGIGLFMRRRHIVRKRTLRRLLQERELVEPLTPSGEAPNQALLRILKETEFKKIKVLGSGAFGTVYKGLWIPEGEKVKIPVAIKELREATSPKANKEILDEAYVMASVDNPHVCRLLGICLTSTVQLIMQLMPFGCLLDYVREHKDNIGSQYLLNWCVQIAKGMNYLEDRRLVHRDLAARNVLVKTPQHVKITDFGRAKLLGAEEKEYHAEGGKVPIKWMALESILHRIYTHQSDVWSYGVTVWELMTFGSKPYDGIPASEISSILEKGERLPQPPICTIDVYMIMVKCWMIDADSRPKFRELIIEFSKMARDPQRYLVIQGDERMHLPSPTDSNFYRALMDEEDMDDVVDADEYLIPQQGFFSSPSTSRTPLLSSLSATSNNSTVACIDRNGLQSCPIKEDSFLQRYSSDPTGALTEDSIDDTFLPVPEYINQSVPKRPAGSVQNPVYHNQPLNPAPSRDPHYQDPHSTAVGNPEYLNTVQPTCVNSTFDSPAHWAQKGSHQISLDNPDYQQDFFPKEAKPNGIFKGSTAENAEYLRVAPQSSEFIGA
assay procedure: Kinase Inhibition Assay
measured quantity: IC50

# IC50 of `C=CC(=O)Nc1cc(Nc2nccc(-c3cc(F)c4nc(C)n(C(C)C)c4c3)n2)c(OC)cc1OCCN(C)C` = < 1 nM

----------
tested target: Epidermal growth factor receptor (Homo sapiens)
Sequence (P00533 whole entry): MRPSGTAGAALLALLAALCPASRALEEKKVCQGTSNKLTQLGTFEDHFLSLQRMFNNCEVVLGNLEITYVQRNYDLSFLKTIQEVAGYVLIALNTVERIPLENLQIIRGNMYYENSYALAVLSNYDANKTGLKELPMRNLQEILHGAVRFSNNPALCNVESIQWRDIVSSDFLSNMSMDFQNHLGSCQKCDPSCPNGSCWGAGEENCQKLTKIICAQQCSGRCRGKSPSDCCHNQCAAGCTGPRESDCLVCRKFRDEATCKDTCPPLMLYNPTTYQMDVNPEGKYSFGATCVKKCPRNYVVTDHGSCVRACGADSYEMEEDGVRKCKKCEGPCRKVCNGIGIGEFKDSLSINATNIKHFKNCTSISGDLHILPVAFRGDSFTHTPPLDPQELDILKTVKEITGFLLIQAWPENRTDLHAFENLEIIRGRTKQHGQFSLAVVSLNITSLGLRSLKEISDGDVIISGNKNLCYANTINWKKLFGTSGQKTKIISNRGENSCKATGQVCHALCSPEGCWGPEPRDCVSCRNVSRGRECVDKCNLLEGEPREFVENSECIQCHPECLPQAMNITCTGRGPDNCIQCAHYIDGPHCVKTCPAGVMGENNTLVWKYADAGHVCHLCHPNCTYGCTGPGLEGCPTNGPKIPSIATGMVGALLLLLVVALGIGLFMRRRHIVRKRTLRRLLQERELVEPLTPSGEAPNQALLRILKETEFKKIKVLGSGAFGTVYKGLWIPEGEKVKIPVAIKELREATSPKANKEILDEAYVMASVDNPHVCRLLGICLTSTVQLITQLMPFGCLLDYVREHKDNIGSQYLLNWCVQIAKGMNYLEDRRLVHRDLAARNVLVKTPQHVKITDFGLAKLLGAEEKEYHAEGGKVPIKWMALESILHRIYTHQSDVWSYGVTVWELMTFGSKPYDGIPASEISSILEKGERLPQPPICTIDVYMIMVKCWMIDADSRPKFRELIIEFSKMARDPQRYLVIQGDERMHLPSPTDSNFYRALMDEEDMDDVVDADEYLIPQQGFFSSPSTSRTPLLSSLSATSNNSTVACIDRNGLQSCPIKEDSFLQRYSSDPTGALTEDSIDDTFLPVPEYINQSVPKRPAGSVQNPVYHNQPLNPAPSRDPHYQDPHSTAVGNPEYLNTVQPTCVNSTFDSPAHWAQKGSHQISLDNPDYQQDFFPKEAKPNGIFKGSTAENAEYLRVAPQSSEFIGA
pIC50: −log10 of the molar value.
measured quantity: pIC50

For C=CC(=O)Nc1cc(Nc2nccc(-c3cc(F)c4nc(C)n(C(C)C)c4c3)n2)c(OC)cc1N1CCOCC1 [US11111233, Example 16] the molecule record lists pIC50 as < 7.00

Source listed as BindingDB's records for patent US11111233.
